METHOD_DESCRIPTION: Cytotoxicity against human HepG2 cells assessed as cell metabolic activity at 10 uM incubated for 48 hrs by resazurin assay relative to control
Format: ADME, cell-based
STATED_CONDITIONS: read-out: Activity
MEASURED_ENDPOINT: viability at 48 h, 10 µM (%)
Give the quantity in %, number only.

Worked cases, answers included:
Consider the compound CS(=O)(=O)[O-].O=C(/C=C/c1cc(O)c(O)c(O)c1)NCCCCCCCCCC[P+](c1ccccc1)(c1ccccc1)c1ccccc1 and give its measured viability at 48 h, 10 µM.
105

Consider the compound CS(=O)(=O)[O-].O=C(/C=C/c1ccc(O)c(O)c1)NCCCCCCCCCC[P+](c1ccccc1)(c1ccccc1)c1ccccc1 and give its measured viability at 48 h, 10 µM.
9.19

Consider the compound O=C(NCCCCCCCCCC[P+](c1ccccc1)(c1ccccc1)c1ccccc1)c1cc(O)c(O)c(O)c1 and give its measured viability at 48 h, 10 µM.
108

Now take the following compound into account.
Consider the compound CS(=O)(=O)[O-].O=C(CCc1ccc(O)c(O)c1)NCCCCCC[P+](c1ccccc1)(c1ccccc1)c1ccccc1 and give its measured viability at 48 h, 10 µM.
104

====

# viability at 24 h, 50 µM values compiled below
METHOD_DESCRIPTION: Cytotoxicity against human SH-SY5Y cells assessed as cell metabolic activity at 50 uM incubated for 24 hrs by MTT assay relative to control
Format: ADME, cell-based
STATED_CONDITIONS: read-out: Activity
Give the quantity in %, number only.

Worked cases, answers included:
Consider the compound CS(=O)(=O)[O-].O=C(/C=C/c1ccc(O)c(O)c1)NCCCCCCCCCC[P+](c1ccccc1)(c1ccccc1)c1ccccc1 and give its measured viability at 24 h, 50 µM.
15.9

Consider the compound Cc1c(C)c2c(c(C)c1O)CCC(C)(C(=O)O)O2 (centres undefined) and give its measured viability at 24 h, 50 µM.
3.62

Consider the compound CS(=O)(=O)[O-].O=C(CCc1cc(O)c(O)c(O)c1)NCCCCCCCCCC[P+](c1ccccc1)(c1ccccc1)c1ccccc1 and give its measured viability at 24 h, 50 µM.
96.3

Now take the following compound into account.
Consider the compound CS(=O)(=O)[O-].O=C(CCc1ccc(O)c(O)c1)NCCCCCCCCCC[P+](c1ccccc1)(c1ccccc1)c1ccccc1 and give its measured viability at 24 h, 50 µM.
72.5

====

METHOD_DESCRIPTION: Apparent permeability across apical to basolateral side in human CMEC/D3 cells at 100 uM incubated up to 180 mins by UV-VIS spectroscopic method
Type: ADME, cell-based
STATED_CONDITIONS: hcmec/d3, 3 h
# permeability values compiled below
Be sure to follow the number with its unit.

Worked cases, answers included:
Consider the compound CS(=O)(=O)[O-].O=C(Cc1cc(O)c(O)c(O)c1)NCCCCCC[P+](c1ccccc1)(c1ccccc1)c1ccccc1 and give its measured permeability.
65.4%

Consider the compound CS(=O)(=O)[O-].O=C(CCc1cc(O)c(O)c(O)c1)NCCCCCC[P+](c1ccccc1)(c1ccccc1)c1ccccc1 and give its measured permeability.
23.7%

Consider the compound CS(=O)(=O)[O-].O=C(Cc1ccc(O)c(O)c1)NCCCCCC[P+](c1ccccc1)(c1ccccc1)c1ccccc1 and give its measured permeability.
71.9%

Consider the compound CS(=O)(=O)[O-].O=C(CCc1ccc(O)c(O)c1)NCCCCCC[P+](c1ccccc1)(c1ccccc1)c1ccccc1 and give its measured permeability.
24.6%

Consider the compound CS(=O)(=O)[O-].O=C(Cc1cc(O)c(O)c(O)c1)NCCCCCCCCCC[P+](c1ccccc1)(c1ccccc1)c1ccccc1 and give its measured permeability.
27.7%

---
Consider the compound CS(=O)(=O)[O-].O=C(CCc1cc(O)c(O)c(O)c1)NCCCCCCCCCC[P+](c1ccccc1)(c1ccccc1)c1ccccc1 and give its measured permeability.
33.1%

====

METHOD_DESCRIPTION: Cytotoxicity against human SH-SY5Y cells assessed as cell metabolic activity at 50 uM incubated for 24 hrs by MTT assay relative to control
Assay type: ADME, cell-based
STATED_CONDITIONS: read-out: Activity
MEASURED_ENDPOINT: viability at 24 h, 50 µM (%)
Give the quantity in %, number only.

Worked cases, answers included:
Consider the molecule CS(=O)(=O)[O-].O=C(Cc1cc(O)c(O)c(O)c1)NCCCCCC[P+](c1ccccc1)(c1ccccc1)c1ccccc1 and give its measured viability at 24 h, 50 µM.
93.7

Consider the molecule CS(=O)(=O)[O-].O=C(CCc1ccc(O)c(O)c1)NCCCCCC[P+](c1ccccc1)(c1ccccc1)c1ccccc1 and give its measured viability at 24 h, 50 µM.
97.5

Consider the molecule O=C(NCCCCCCCCCC[P+](c1ccccc1)(c1ccccc1)c1ccccc1)c1cc(O)c(O)c(O)c1 and give its measured viability at 24 h, 50 µM.
101

Consider the molecule CS(=O)(=O)[O-].O=C(Cc1cc(O)c(O)c(O)c1)NCCCCCCCCCC[P+](c1ccccc1)(c1ccccc1)c1ccccc1 and give its measured viability at 24 h, 50 µM.
95.3

Consider the molecule O=C(NCCCCCC[P+](c1ccccc1)(c1ccccc1)c1ccccc1)c1ccc(O)c(O)c1 and give its measured viability at 24 h, 50 µM.
96.9

Consider the molecule CS(=O)(=O)[O-].O=C(CCc1cc(O)c(O)c(O)c1)NCCCCCC[P+](c1ccccc1)(c1ccccc1)c1ccccc1 and give its measured viability at 24 h, 50 µM.
91.7

Consider the molecule CS(=O)(=O)[O-].O=C(Cc1ccc(O)c(O)c1)NCCCCCC[P+](c1ccccc1)(c1ccccc1)c1ccccc1 and give its measured viability at 24 h, 50 µM.
96.9

Now take the following molecule into account.
Consider the molecule CS(=O)(=O)[O-].O=C(/C=C/c1cc(O)c(O)c(O)c1)NCCCCCC[P+](c1ccccc1)(c1ccccc1)c1ccccc1 and give its measured viability at 24 h, 50 µM.
94

====

METHOD_DESCRIPTION: Cytotoxicity against human HepG2 cells assessed as cell metabolic activity at 50 uM incubated for 48 hrs by resazurin assay relative to control
Format: ADME, cell-based
STATED_CONDITIONS: read-out: Activity
MEASURED_ENDPOINT: viability at 48 h, 50 µM (%)
Give the quantity in %, number only.

Worked cases, answers included:
Consider the compound Cc1c(C)c2c(c(C)c1O)CCC(C)(C(=O)O)O2 (configuration not stated) and give its measured viability at 48 h, 50 µM.
5.99

Consider the compound CS(=O)(=O)[O-].O=C(/C=C/c1cc(O)c(O)c(O)c1)NCCCCCC[P+](c1ccccc1)(c1ccccc1)c1ccccc1 and give its measured viability at 48 h, 50 µM.
94.7

Consider the compound CS(=O)(=O)[O-].O=C(CCc1cc(O)c(O)c(O)c1)NCCCCCCCCCC[P+](c1ccccc1)(c1ccccc1)c1ccccc1 and give its measured viability at 48 h, 50 µM.
108

---
Consider the compound O=C(NCCCCCC[P+](c1ccccc1)(c1ccccc1)c1ccccc1)c1cc(O)c(O)c(O)c1.[Br-] and give its measured viability at 48 h, 50 µM.
88.5

====

# viability at 24 h, 50 µM values compiled below
METHOD_DESCRIPTION: Cytotoxicity against human SH-SY5Y cells assessed as cell metabolic activity at 50 uM incubated for 24 hrs by MTT assay relative to control
Format: ADME, cell-based
STATED_CONDITIONS: read-out: Activity
Give the quantity in %, number only.

Consider the compound O=C(NCCCCCC[P+](c1ccccc1)(c1ccccc1)c1ccccc1)c1cc(O)c(O)c(O)c1.[Br-] and give its measured viability at 24 h, 50 µM.
98.2

Consider the compound CS(=O)(=O)[O-].O=C(/C=C/c1cc(O)c(O)c(O)c1)NCCCCCCCCCC[P+](c1ccccc1)(c1ccccc1)c1ccccc1 and give its measured viability at 24 h, 50 µM.
101

Consider the compound CS(=O)(=O)[O-].O=C(/C=C/c1ccc(O)c(O)c1)NCCCCCC[P+](c1ccccc1)(c1ccccc1)c1ccccc1 and give its measured viability at 24 h, 50 µM.
97.6

Consider the compound CS(=O)(=O)[O-].O=C(Cc1ccc(O)c(O)c1)NCCCCCCCCCC[P+](c1ccccc1)(c1ccccc1)c1ccccc1 and give its measured viability at 24 h, 50 µM.
85.7

Consider the compound O=C(NCCCCCCCCCC[P+](c1ccccc1)(c1ccccc1)c1ccccc1)c1ccc(O)c(O)c1.[Br-] and give its measured viability at 24 h, 50 µM.
31.1

====

Test system: SH-SY5Y
METHOD_DESCRIPTION: Neuroprotective activity against 6-OHDA-induced toxicity in human SH-SY5Y cells assessed as reduction in cell damage at 10 to 50 uM pretreated for 24 hrs followed by 6-OHDA challenge and measured after 24 hrs by MTT assay relative to control
Format: functional
Active and inactive are the calls of the source. The calls are words filed in the database; no cut-off is given here.
Respond only with the outcome that fits, drawn from active, inactive

Reference set, count: 5
What was the test verdict on O=C(NCCCCCC[P+](c1ccccc1)(c1ccccc1)c1ccccc1)c1cc(O)c(O)c(O)c1.[Br-] ?
inactive

What was the test verdict on CS(=O)(=O)[O-].O=C(Cc1cc(O)c(O)c(O)c1)NCCCCCC[P+](c1ccccc1)(c1ccccc1)c1ccccc1 ?
active

What was the test verdict on O=C(NCCCCCCCCCC[P+](c1ccccc1)(c1ccccc1)c1ccccc1)c1ccc(O)c(O)c1.[Br-] ?
inactive

What was the test verdict on O=C(NCCCCCCCCCC[P+](c1ccccc1)(c1ccccc1)c1ccccc1)c1cc(O)c(O)c(O)c1 ?
inactive

What was the test verdict on CS(=O)(=O)[O-].O=C(CCc1cc(O)c(O)c(O)c1)NCCCCCC[P+](c1ccccc1)(c1ccccc1)c1ccccc1 ?
active

Next compound, please.
What was the test verdict on CS(=O)(=O)[O-].O=C(/C=C/c1ccc(O)c(O)c1)NCCCCCC[P+](c1ccccc1)(c1ccccc1)c1ccccc1 ?
inactive
